Consider the following variants; for each one, report its abundance fitness.
B1: POU domain, class 2, transcription factor 2, residues 200 to 269; numbered along this chain, P09086 (parent)
chain: LEELEQFARTFKQRRIKLGFTQGDVGLAMGKLYGNDFSQTTISRFEALNLSFKNMCKLKPLLEKWLNDAE

variants of: B1; test: abundance fitness (aPCA) (normalised: wild type 0, dead -1); higher = more abundant; growth selection in yeast, the domain comes from the species named; conditions: Homo sapiens
One number for each entry.

Known results for variants:
mutation-notation | abundance fitness
G26R | -0.165
M29L | 0.072
C56E | 0.002

Batch: abundance fitness for all items listed.
1. Q22Y
2. L4T
3. Q22L
4. F45M
5. E70M

Marked response:
[-0.423, -0.11, -0.025, -0.109, -0.072]
